Origin of values: patent US10919896B2

biological target: Cdc7/Dbf4 (Homo sapiens); test: Cdc7 Biochemical Assay Method 3: Cdc7/Dbf4 Enzyme TR-FRET Assay measuring pS40MCM2; conditions: 1 μM ATP, read-out: Biochemical Method 3 (pIC50) (converted)
Sequence (O00311 whole entry): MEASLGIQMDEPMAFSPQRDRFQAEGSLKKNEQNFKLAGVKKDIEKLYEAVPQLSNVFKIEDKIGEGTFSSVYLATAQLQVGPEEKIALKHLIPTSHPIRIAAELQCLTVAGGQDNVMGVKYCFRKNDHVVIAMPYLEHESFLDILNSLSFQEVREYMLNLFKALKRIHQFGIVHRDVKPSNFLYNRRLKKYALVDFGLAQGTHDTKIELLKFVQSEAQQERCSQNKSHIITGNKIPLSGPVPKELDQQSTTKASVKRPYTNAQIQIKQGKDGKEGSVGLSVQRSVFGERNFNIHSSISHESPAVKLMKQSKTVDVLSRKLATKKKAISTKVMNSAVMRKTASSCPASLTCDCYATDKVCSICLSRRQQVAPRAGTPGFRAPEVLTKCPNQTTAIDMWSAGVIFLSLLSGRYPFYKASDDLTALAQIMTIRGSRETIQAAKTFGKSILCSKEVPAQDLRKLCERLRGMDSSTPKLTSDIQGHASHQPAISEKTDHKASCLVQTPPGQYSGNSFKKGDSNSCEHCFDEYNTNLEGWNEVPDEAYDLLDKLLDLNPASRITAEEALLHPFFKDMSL
Sequence (Q9UBU7 whole entry partner): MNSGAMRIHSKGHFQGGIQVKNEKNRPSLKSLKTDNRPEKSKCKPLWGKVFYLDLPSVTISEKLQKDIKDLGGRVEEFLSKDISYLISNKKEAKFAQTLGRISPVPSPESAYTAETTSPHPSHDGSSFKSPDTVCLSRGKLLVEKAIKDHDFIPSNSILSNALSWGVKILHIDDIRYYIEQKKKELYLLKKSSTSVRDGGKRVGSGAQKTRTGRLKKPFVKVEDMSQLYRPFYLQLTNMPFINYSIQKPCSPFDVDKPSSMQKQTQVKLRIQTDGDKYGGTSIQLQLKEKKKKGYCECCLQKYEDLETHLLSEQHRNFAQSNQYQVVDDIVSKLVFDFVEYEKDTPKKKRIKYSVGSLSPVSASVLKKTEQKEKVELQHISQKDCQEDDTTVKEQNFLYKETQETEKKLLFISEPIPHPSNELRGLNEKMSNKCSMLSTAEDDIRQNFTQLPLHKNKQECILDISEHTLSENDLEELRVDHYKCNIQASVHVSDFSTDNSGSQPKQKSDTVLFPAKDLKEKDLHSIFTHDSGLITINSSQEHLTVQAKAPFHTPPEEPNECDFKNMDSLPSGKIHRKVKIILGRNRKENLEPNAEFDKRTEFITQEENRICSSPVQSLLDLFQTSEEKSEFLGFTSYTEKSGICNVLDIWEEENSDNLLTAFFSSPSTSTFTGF
Test readout: log10 IC50 (log10 of the value in nM)
Form field - Quantity: IC50; Unit: nM; Scale: log10

Each compound below has a reported value. Please supply its log10 IC50.
1. O=C1CNCCN(c2nc(-c3ccnc(F)c3)[nH]c(=O)c2Cl)C1 [Compound 412]
2. O=c1[nH]c(-c2ccnc(F)c2)nc(N2CCNC(C(F)(F)F)CC2)c1Cl (centres unmarked) [Compound 296]
3. CC1CN(c2nc(-c3ccnc(F)c3)[nH]c(=O)c2Cl)C(C)CO1 (centres unmarked) [Compound 340]
4. O=c1[nH]c(-c2ccnc(F)c2)nc(N2CCCC(F)(F)CC2)c1Cl [Compound 204]
5. C[C@H]1CN[C@@H](C(F)(F)F)CN1c1nc(-c2ccnc(F)c2)[nH]c(=O)c1Cl (racemic) [Compound 378]
6. CC(C)CN1CCC(c2nc(-c3ccncc3)[nH]c(=O)c2Cl)CC1 [Compound 39]
7. C[C@H]1CN(c2nc(-c3ccncc3)[nH]c(=O)c2Cl)CCN1 [Compound 130]

Solution:
[-0.19, 0.88, 0.40, 0.61, 0.77, 0.76, 0.37]

Exercise: # input compound: CC1OCCN(c2nc(-c3ccnc(F)c3)[nH]c(=O)c2Cl)C1C (centres unmarked) [Compound 359] ; wanted: its log10 IC50
Solution: 0.30
